Target: BRG-1 (Homo sapiens)
Construct: made in house; host or cells: High Five insect cells
Sequence (P51532 whole entry): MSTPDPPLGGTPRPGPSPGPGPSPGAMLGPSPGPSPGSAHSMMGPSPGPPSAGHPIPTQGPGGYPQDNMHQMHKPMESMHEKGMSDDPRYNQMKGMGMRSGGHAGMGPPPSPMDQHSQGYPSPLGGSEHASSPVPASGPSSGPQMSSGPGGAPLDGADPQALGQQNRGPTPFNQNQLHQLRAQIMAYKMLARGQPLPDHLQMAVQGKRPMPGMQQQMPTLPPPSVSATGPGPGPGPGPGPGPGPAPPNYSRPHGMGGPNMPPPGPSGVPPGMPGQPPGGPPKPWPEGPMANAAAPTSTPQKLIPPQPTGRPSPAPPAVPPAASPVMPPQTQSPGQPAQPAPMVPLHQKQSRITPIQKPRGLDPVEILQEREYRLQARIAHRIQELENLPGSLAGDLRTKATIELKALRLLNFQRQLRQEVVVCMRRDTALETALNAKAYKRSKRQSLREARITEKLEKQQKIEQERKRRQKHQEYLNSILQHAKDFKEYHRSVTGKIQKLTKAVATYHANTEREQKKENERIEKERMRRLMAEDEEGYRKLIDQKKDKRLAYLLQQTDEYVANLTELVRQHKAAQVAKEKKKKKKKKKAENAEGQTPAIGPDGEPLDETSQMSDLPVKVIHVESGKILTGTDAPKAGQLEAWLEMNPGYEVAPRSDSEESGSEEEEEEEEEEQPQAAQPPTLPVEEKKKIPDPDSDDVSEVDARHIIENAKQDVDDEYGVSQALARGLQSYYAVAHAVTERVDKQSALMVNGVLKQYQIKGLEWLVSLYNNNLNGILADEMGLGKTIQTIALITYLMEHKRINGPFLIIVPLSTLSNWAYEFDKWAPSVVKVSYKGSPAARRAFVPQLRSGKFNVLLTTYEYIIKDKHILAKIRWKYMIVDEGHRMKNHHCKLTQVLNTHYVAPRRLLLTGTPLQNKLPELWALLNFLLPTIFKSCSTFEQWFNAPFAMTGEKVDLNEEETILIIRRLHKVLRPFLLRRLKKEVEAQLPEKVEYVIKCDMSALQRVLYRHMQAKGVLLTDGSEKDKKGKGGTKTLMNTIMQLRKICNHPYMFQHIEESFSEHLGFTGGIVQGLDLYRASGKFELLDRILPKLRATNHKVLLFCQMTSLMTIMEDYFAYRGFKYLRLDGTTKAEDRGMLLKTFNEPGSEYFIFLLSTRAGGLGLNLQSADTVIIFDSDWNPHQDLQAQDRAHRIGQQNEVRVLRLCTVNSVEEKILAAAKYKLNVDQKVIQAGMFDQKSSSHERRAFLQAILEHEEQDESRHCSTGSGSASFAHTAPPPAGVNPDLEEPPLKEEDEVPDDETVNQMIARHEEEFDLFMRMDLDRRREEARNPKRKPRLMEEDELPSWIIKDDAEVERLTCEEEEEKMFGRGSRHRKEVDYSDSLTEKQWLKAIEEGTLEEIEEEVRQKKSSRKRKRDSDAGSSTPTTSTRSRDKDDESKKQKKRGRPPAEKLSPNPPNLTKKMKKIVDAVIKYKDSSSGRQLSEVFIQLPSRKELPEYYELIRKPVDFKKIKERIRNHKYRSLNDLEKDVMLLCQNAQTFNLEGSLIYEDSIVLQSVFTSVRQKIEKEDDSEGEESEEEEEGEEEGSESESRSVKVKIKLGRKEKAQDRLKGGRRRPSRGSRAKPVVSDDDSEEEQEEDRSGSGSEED
Test: ATPase catalytic activity of BRG-1, ADP-Glo in vitro biochemical assay
Conditions: ATPase catalytic activity, ADP-Glo; 30 nM BRG-1, 400 μM ATP; read-out: BRG1 IC50
Label satisfied when IC50 < 200 nM; otherwise not satisfied.

{"columns": ["compound", "group_label"],
 "data": [
  ["C[C@@H]1CN(c2cccc(-c3ccc4cnc(CNC(=O)c5cnc6c(c5)S(=O)(=O)[C@H](C)CCC6)cc4n3)n2)C[C@H](C)O1", "not satisfied"],
  ["O=C(NCc1cc2nc(N3CCCc4ccc(F)nc43)ccc2cn1)c1ccc2c(c1)S(=O)(=O)CCOC2", "satisfied"],
  ["O=C(NCc1cc2nc(N3CCOc4ccc([C@@H]5CC5(F)F)nc43)ccc2cn1)c1ccc2c(c1)S(=O)(=O)CCOC2", "not satisfied"],
  ["C[C@H](C1COC1)N(C)c1cccc(-c2ccc3cnc(CNC(=O)c4ccc5c(c4)S(=O)(=O)CCOC5)cc3n2)n1", "not satisfied"],
  ["Cc1ccc2c(n1)N(c1ccc3cnc(CNC(=O)c4ccc5c(c4)S(=O)(=O)CCOC5)cc3n1)CCC2", "not satisfied"],
  ["COC1(CN(C)c2cccc(-c3ccc4cnc(CNC(=O)c5ccc6c(c5)S(=O)(=O)CCOC6)cc4n3)n2)CC1", "not satisfied"],
  ["C[C@@H]1CN(c2cccc(-c3ccc4cnc(CNC(=O)c5ccc(COC6CC6)c(S(C)(=O)=O)c5)cc4n3)n2)C[C@H](C)O1", "not satisfied"],
  ["O=C(NCc1cc2nc(N3CCOc4ccc(C5CC5)cc43)ccc2cn1)c1ccc2c(c1)S(=O)(=O)CCOC2", "satisfied"],
  ["CC(C)S(=O)(=O)c1cccc(C(=O)NCc2cc3nc(-c4cccc(N5C[C@@H](C)O[C@@H](C)C5)n4)ccc3cn2)c1", "not satisfied"],
  ["O=C(NCc1cc2nc(N3CCCc4ccc(OCC5COC5)cc43)ccc2cn1)c1ccc2c(c1)S(=O)(=O)CCOC2", "satisfied"],
  ["O=C(NCc1cc2nc(N3CCCc4ccc(C(F)(F)F)cc43)ccc2cn1)c1ccc2c(c1)S(=O)(=O)CCOC2", "not satisfied"],
  ["CCN(c1cccc(-c2ccc3cnc(CNC(=O)c4ccc5c(c4)S(=O)(=O)CCOC5)cc3n2)n1)C1CC1", "not satisfied"],
  ["Cc1cnc2c(c1)OCCN2c1ccc2cnc(CNC(=O)c3ccc4c(c3)S(=O)(=O)CCOC4)cc2n1", "satisfied"],
  ["COc1nc(C(F)F)ccc1-c1ccc2cnc(CNC(=O)c3ccc4c(c3)S(=O)(=O)CCOC4)cc2n1", "satisfied"],
  ["C[C@@]1(F)CCCN(c2cccc(-c3ccc4cnc(CNC(=O)c5ccc6c(c5)S(=O)(=O)CCOC6)cc4n3)n2)C1", "satisfied"],
  ["COCCN(c1cccc(-c2ccc3cnc(CNC(=O)c4ccc5c(c4)S(=O)(=O)CCOC5)cc3n2)n1)C1CC1", "not satisfied"],
  ["C[C@H]1COCc2ccc(C(=O)NCc3cc4nc(-c5cccc(OC(F)F)n5)ccc4cn3)cc2S1(=O)=O", "not satisfied"],
  ["O=C(NCc1cc2nc(-c3cccc(C4CCOC4)n3)ccc2cn1)c1ccc2c(c1)S(=O)(=O)CCOC2 (stereo not drawn)", "not satisfied"],
  ["Cc1cnc2c(c1)CCCN2c1ccc2cnc(CNC(=O)c3ccc4c(c3)S(=O)(=O)CCCO4)cc2n1", "not satisfied"],
  ["COc1nc(-c2ccc3cnc(CNC(=O)c4ccc5c(c4)S(=O)(=O)CCOC5)cc3n2)ccc1C(F)F", "satisfied"],
  ["O=C(NCc1cc2nc(N3CCCc4ccc(C5CC5)nc43)ccc2cn1)c1ccc2c(c1)S(=O)(=O)CCOC2", "not satisfied"],
  ["CCO[C@H](C)c1ccc2c(n1)N(c1ccc3cnc(CNC(=O)c4ccc5c(c4)S(=O)(=O)CCOC5)cc3n1)CCC2", "not satisfied"],
  ["CN(CC1(F)COC1)c1cccc(-c2ccc3cnc(CNC(=O)c4ccc5c(c4)S(=O)(=O)CCOC5)cc3n2)n1", "not satisfied"],
  ["O=C(NCc1cc2nc(N3CCCc4ccc(OC5CC5)cc43)ccc2cn1)c1ccc2c(c1)S(=O)(=O)CCOC2", "satisfied"],
  ["COCCN(CC(C)(F)F)c1cccc(-c2ccc3cnc(CNC(=O)c4ccc5c(c4)S(=O)(=O)CCOC5)cc3n2)n1", "satisfied"],
  ["O=C(NCc1cc2nc(-c3cccc(N4CC[C@H]5C[C@H]5C4)n3)ccc2cn1)c1ccc2c(c1)S(=O)(=O)CCOC2", "satisfied"],
  ["O=C(NCc1cc2nc(N3CCOc4cccnc43)ccc2cn1)c1ccc2c(c1)S(=O)(=O)CCOC2", "satisfied"]
]}
